Tested on: LXF-289
Test: relative viability (nuclei count vs DMSO), 5 days (fraction); higher = more cells survive
Details: first compound 0.04 µM
Listed next: entries and their corresponding relative viability.
measurement type: relative viability

compound	observed measurement
C[C@@H]1CN(CC(=O)Nc2ccc3c(c2)Cc2cccc(-c4cc(=O)cc(N5CCOCC5)o4)c2S3)C[C@H](C)O1 + CS(=O)(=O)CCNCc1ccc(-c2ccc3ncnc(Nc4ccc(OCc5cccc(F)c5)c(Cl)c4)c3c2)o1 [Lapatinib] (partner 2 µM)	0.879
C[C@@H]1CN(CC(=O)Nc2ccc3c(c2)Cc2cccc(-c4cc(=O)cc(N5CCOCC5)o4)c2S3)C[C@H](C)O1 + Nc1nc2[nH]cc(CCc3ccc(C(=O)N[C@@H](CCC(=O)O)C(=O)O)cc3)c2c(=O)[nH]1 [Pemetrexed] (partner 0.2 µM)	0.884
C[C@@H]1CN(CC(=O)Nc2ccc3c(c2)Cc2cccc(-c4cc(=O)cc(N5CCOCC5)o4)c2S3)C[C@H](C)O1 + COc1cc2c(Oc3ccc(NC(=O)C4(C(=O)Nc5ccc(F)cc5)CC4)cc3F)ccnc2cc1OCCCN1CCOCC1 [Foretinib] (partner 0.25 µM)	0.993
Clc1ccc(Nc2nnc(Cc3ccncc3)c3ccccc23)cc1 [Vatalanib] + C[C@]1(O)C[C@@H](c2nc(-c3ccc4ccc(-c5ccccc5)nc4c3)c3c(N)nccn32)C1 [Linsitinib] (partner 1 µM)	1.04
Clc1ccc(Nc2nnc(Cc3ccncc3)c3ccccc23)cc1 [Vatalanib] + CCNC(=O)c1noc(-c2cc(C(C)C)c(O)cc2O)c1-c1ccc(CN2CCOCC2)cc1 [Luminespib] (partner 0.01 µM)	0.703
COc1cc(N2CCC(C(N)=O)CC2)ccc1Nc1nc(N)c(Cl)c(Nc2ccccc2S(=O)(=O)C(C)C)n1 [HG-5-88-01] + CC(C)C[C@H](NC(=O)[C@H](Cc1ccccc1)NC(=O)c1cnccn1)B(O)O [Bortezomib] (partner 0.002 µM)	1.04
C[C@@H]1CN(CC(=O)Nc2ccc3c(c2)Cc2cccc(-c4cc(=O)cc(N5CCOCC5)o4)c2S3)C[C@H](C)O1 + CS(=O)(=O)N1CCN(Cc2cc3nc(-c4cccc5[nH]ncc45)nc(N4CCOCC4)c3s2)CC1 [Pictilisib] (partner 1 µM)	0.852
C[C@@H]1CN(CC(=O)Nc2ccc3c(c2)Cc2cccc(-c4cc(=O)cc(N5CCOCC5)o4)c2S3)C[C@H](C)O1 + CC(=O)c1c(C)c2cnc(Nc3ccc(N4CCNCC4)cn3)nc2n(C2CCCC2)c1=O [Palbociclib] (partner 0.5 µM)	0.616
C[C@@H]1CN(CC(=O)Nc2ccc3c(c2)Cc2cccc(-c4cc(=O)cc(N5CCOCC5)o4)c2S3)C[C@H](C)O1 + Cc1nc(Nc2ncc(C(=O)Nc3c(C)cccc3Cl)s2)cc(N2CCN(CCO)CC2)n1 [Dasatinib] (partner 0.075 µM)	0.185
COc1cc(N2CCC(C(N)=O)CC2)ccc1Nc1nc(N)c(Cl)c(Nc2ccccc2S(=O)(=O)C(C)C)n1 [HG-5-88-01] + CS(=O)(=O)CCNCc1ccc(-c2ccc3ncnc(Nc4ccc(OCc5cccc(F)c5)c(Cl)c4)c3c2)o1 [Lapatinib] (partner 2 µM)	0.913
C[C@@H]1CN(CC(=O)Nc2ccc3c(c2)Cc2cccc(-c4cc(=O)cc(N5CCOCC5)o4)c2S3)C[C@H](C)O1 + O=C(c1cc(Cc2n[nH]c(=O)c3ccccc23)ccc1F)N1CCN(C(=O)C2CC2)CC1 [Olaparib] (partner 8 µM)	0.998
COc1cc(N2CCC(C(N)=O)CC2)ccc1Nc1nc(N)c(Cl)c(Nc2ccccc2S(=O)(=O)C(C)C)n1 [HG-5-88-01] + Cc1nc(NC(=O)N2CCC[C@H]2C(N)=O)sc1-c1ccnc(C(C)(C)C(F)(F)F)c1 [Alpelisib] (partner 2 µM)	1.05

###

System: NCI-H1993
Test: relative viability (nuclei count vs DMSO), 5 days (fraction); higher = more cells survive
Settings: first compound 4 µM
Listed next: entries and their corresponding relative viability.

compound	relative viability
C[C@@H]1CN(CC(=O)Nc2ccc3c(c2)Cc2cccc(-c4cc(=O)cc(N5CCOCC5)o4)c2S3)C[C@H](C)O1 + C[C@@H](Oc1cc(-c2cnn(C3CCNCC3)c2)cnc1N)c1c(Cl)ccc(F)c1Cl [Crizotinib] (partner 1 µM)	0.85
Clc1ccc(Nc2nnc(Cc3ccncc3)c3ccccc23)cc1 [Vatalanib] + C[C@]1(O)C[C@@H](c2nc(-c3ccc4ccc(-c5ccccc5)nc4c3)c3c(N)nccn32)C1 [Linsitinib] (partner 1 µM)	0.734
COc1cc(N2CCC(C(N)=O)CC2)ccc1Nc1nc(N)c(Cl)c(Nc2ccccc2S(=O)(=O)C(C)C)n1 [HG-5-88-01] + C[C@@H](Oc1cc(-c2cnn(C3CCNCC3)c2)cnc1N)c1c(Cl)ccc(F)c1Cl [Crizotinib] (partner 1 µM)	0.753
Clc1ccc(Nc2nnc(Cc3ccncc3)c3ccccc23)cc1 [Vatalanib] + Cc1cc(Nc2cc(N3CCN(C)CC3)nc(Sc3ccc(NC(=O)C4CC4)cc3)n2)n[nH]1 [Tozasertib] (partner 0.1 µM)	0.592
Clc1ccc(Nc2nnc(Cc3ccncc3)c3ccccc23)cc1 [Vatalanib] + CC1(C)CCC(c2ccc(Cl)cc2)=C(CN2CCN(c3ccc(C(=O)NS(=O)(=O)c4ccc(N[C@H](CCN5CCOCC5)CSc5ccccc5)c(S(=O)(=O)C(F)(F)F)c4)cc3)CC2)C1 [Navitoclax] (partner 0.5 µM)	0.63
COc1cc(N2CCC(C(N)=O)CC2)ccc1Nc1nc(N)c(Cl)c(Nc2ccccc2S(=O)(=O)C(C)C)n1 [HG-5-88-01] + CS(=O)(=O)N1CCN(Cc2cc3nc(-c4cccc5[nH]ncc45)nc(N4CCOCC4)c3s2)CC1 [Pictilisib] (partner 1 µM)	0.873
Clc1ccc(Nc2nnc(Cc3ccncc3)c3ccccc23)cc1 [Vatalanib] + C[C@@H](Oc1cc(-c2cnn(C3CCNCC3)c2)cnc1N)c1c(Cl)ccc(F)c1Cl [Crizotinib] (partner 1 µM)	0.846
C[C@@H]1CN(CC(=O)Nc2ccc3c(c2)Cc2cccc(-c4cc(=O)cc(N5CCOCC5)o4)c2S3)C[C@H](C)O1 + COc1cc2c(Oc3ccc(NC(=O)C4(C(=O)Nc5ccc(F)cc5)CC4)cc3F)ccnc2cc1OCCCN1CCOCC1 [Foretinib] (partner 0.25 µM)	0.707
Clc1ccc(Nc2nnc(Cc3ccncc3)c3ccccc23)cc1 [Vatalanib] + NC(=O)Nc1cc(-c2cccc(F)c2)sc1C(=O)N[C@H]1CCCNC1 [AZD7762] (partner 0.2 µM)	0.737

###

Listed next: entries and their corresponding relative viability.
System: NCI-H1666
Test: relative viability (nuclei count vs DMSO), 5 days (fraction); higher = more cells survive
Conditions: first compound 0.04 µM

compound	relative viability
Clc1ccc(Nc2nnc(Cc3ccncc3)c3ccccc23)cc1 [Vatalanib] + CCNC(=O)c1noc(-c2cc(C(C)C)c(O)cc2O)c1-c1ccc(CN2CCOCC2)cc1 [Luminespib] (partner 0.01 µM)	0.986
C[C@@H]1CN(CC(=O)Nc2ccc3c(c2)Cc2cccc(-c4cc(=O)cc(N5CCOCC5)o4)c2S3)C[C@H](C)O1 + CCNC(=O)c1noc(-c2cc(C(C)C)c(O)cc2O)c1-c1ccc(CN2CCOCC2)cc1 [Luminespib] (partner 0.01 µM)	1
COc1cc(N2CCC(C(N)=O)CC2)ccc1Nc1nc(N)c(Cl)c(Nc2ccccc2S(=O)(=O)C(C)C)n1 [HG-5-88-01] + Cc1nc(NC(=O)N2CCC[C@H]2C(N)=O)sc1-c1ccnc(C(C)(C)C(F)(F)F)c1 [Alpelisib] (partner 2 µM)	1

###

Listed next: entries and their corresponding relative viability.
Test system: EKVX
Assay: relative viability (nuclei count vs DMSO), 5 days (fraction); higher = more cells survive
Conditions: first compound 0.04 µM
measurement type: relative viability

molecule	measurement type	observed measurement
C[C@@H]1CN(CC(=O)Nc2ccc3c(c2)Cc2cccc(-c4cc(=O)cc(N5CCOCC5)o4)c2S3)C[C@H](C)O1 + CC(C)C[C@H](NC(=O)[C@H](Cc1ccccc1)NC(=O)c1cnccn1)B(O)O [Bortezomib] (partner 0.002 µM)	relative viability	1.19
C[C@@H]1CN(CC(=O)Nc2ccc3c(c2)Cc2cccc(-c4cc(=O)cc(N5CCOCC5)o4)c2S3)C[C@H](C)O1 + C[C@]1(O)C[C@@H](c2nc(-c3ccc4ccc(-c5ccccc5)nc4c3)c3c(N)nccn32)C1 [Linsitinib] (partner 1 µM)	relative viability	0.954
COc1cc(N2CCC(C(N)=O)CC2)ccc1Nc1nc(N)c(Cl)c(Nc2ccccc2S(=O)(=O)C(C)C)n1 [HG-5-88-01] + Nc1nc2[nH]cc(CCc3ccc(C(=O)N[C@@H](CCC(=O)O)C(=O)O)cc3)c2c(=O)[nH]1 [Pemetrexed] (partner 0.2 µM)	relative viability	0.468

###

Test system: HCC-78
Assay: relative viability (nuclei count vs DMSO), 5 days (fraction); higher = more cells survive
Settings: first compound 0.1265 µM
Label criterion met when relative viability is strictly below 0.4; at or above that, label criterion not met.

compound	study target	class label
COc1cc(N2CCC(C(N)=O)CC2)ccc1Nc1nc(N)c(Cl)c(Nc2ccccc2S(=O)(=O)C(C)C)n1 [HG-5-88-01] + Cc1cc(Nc2cc(N3CCN(C)CC3)nc(Sc3ccc(NC(=O)C4CC4)cc3)n2)n[nH]1 [Tozasertib] (partner 0.1 µM)	HCC-78	criterion met
C[C@@H]1CN(CC(=O)Nc2ccc3c(c2)Cc2cccc(-c4cc(=O)cc(N5CCOCC5)o4)c2S3)C[C@H](C)O1 + COc1cc2c(Oc3ccc(NC(=O)C4(C(=O)Nc5ccc(F)cc5)CC4)cc3F)ccnc2cc1OCCCN1CCOCC1 [Foretinib] (partner 0.25 µM)	HCC-78	criterion not met
Clc1ccc(Nc2nnc(Cc3ccncc3)c3ccccc23)cc1 [Vatalanib] + CC(C)C[C@H](NC(=O)[C@H](Cc1ccccc1)NC(=O)c1cnccn1)B(O)O [Bortezomib] (partner 0.002 µM)	HCC-78	criterion not met
C[C@@H]1CN(CC(=O)Nc2ccc3c(c2)Cc2cccc(-c4cc(=O)cc(N5CCOCC5)o4)c2S3)C[C@H](C)O1 + COc1cccc2cc(-c3nc([C@H]4CC[C@H](C(=O)O)CC4)n4ncnc(N)c34)[nH]c12 [OSI-027] (partner 0.5 µM)	HCC-78	criterion met
Clc1ccc(Nc2nnc(Cc3ccncc3)c3ccccc23)cc1 [Vatalanib] + O=C(CCCCCCC(=O)Nc1ccccc1)NO [Vorinostat] (partner 1 µM)	HCC-78	criterion not met
